- target.of.assay: human KV1.3 voltage gated K+ channel (Homo sapiens)
- Sequence (P22001 whole entry): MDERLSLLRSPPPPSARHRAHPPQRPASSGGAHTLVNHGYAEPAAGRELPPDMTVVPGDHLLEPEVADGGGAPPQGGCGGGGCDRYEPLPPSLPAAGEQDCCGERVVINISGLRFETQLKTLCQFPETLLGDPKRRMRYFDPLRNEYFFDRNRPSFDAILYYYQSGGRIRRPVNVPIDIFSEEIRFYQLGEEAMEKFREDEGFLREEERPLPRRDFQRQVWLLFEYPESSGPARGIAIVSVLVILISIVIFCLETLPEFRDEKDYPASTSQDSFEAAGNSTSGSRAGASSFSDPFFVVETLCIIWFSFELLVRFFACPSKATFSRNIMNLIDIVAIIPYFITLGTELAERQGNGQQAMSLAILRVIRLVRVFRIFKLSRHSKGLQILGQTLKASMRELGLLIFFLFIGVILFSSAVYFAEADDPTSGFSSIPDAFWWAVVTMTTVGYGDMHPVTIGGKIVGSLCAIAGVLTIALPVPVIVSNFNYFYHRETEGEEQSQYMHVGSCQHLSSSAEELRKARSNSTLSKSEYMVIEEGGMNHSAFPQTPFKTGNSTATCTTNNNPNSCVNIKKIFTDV
- test.summary: KV1.3 thallium influx assay in KV1.3 stably transfected CHO DUKX cells
- run.parameters: thallium influx in KV1.3 cells, relative to 1 μM psoralen
Measured KV 1.3 Efficacy (inhibition of thallium influx as a % of positive control) of individual entries
quantity.kind: KV 1.3 Efficacy (inhibition of thallium influx as a % of positive control) (%)

compound="COC(=O)[C@H]1[C@H]2C[C@@H]3c4[nH]c5cc(OC)ccc5c4CCN3C[C@H]2C[C@@H](OC(=O)c2cc(OC)c(OC)c(OC)c2)[C@@H]1OC [reserpine, reference compound]" quantitative_result=78
compound="CCCCCCCCCCCC[N+](C)(C)CCOc1ccccc1 [domiphen bromide]" quantitative_result=102
compound="Clc1ccc(COC(Cn2ccnc2)c2ccc(Cl)cc2Cl)cc1 (stereo not shown) [econazole nitrate, reference compound]" quantitative_result=104
compound="COc1ccc(CCN(C)CCCC(C#N)(c2ccc(OC)c(OC)c2)C(C)C)cc1OC (stereo not shown) [verapamil, reference compound]" quantitative_result=88
